Data origin, for the record: patent US4338331A

Test: Chronic (subacute) toxicity, 28 days oral, male rat
Assay type: in vivo
Conditions: rat, in vivo; daily doses up to 40 mg/kg oral, 4 weeks; read-out: tolerated doses relative to the maximum daily human therapeutic dose
endpointLabel: selectivity ratio at 672 h
Answers are plain numbers.

Prompt: Could you tell me which selectivity ratio at 672 h is on file for CC1c2ccccc2CN1NC(=O)c1ccc(Cl)c(S(N)(=O)=O)c1 (stereo not shown) [CM/1] ?
Response: 560

* * *

Test: Acute toxicity, oral, rat
Format: in vivo
Details: in vivo, rat, read-out: DL50
endpointLabel: LD50 at 240 h

Prompt: Could you tell me which LD50 at 240 h is on file for CC1c2ccccc2CN1NC(=O)c1ccc(Cl)c(S(N)(=O)=O)c1 (stereo not shown) ?
Response: > 2500 mg/kg
